src = PubChem BioAssay (NCI)

system: HCT-15 colon; test: NCI-60 one-dose screen, 48 h; details: 10 µM unless noted
About 83,000 compounds went through this panel and 20% of them were active in at least one assay; those are over-represented in the sample as a whole. Calls of active or inactive are those of the source. How the source made its calls: active means growth percent below 10; inactive means the rest.
Assign a class; possible classes are true (1) = active, false (0) = inactive

q: Please state the recorded outcome for this molecule: COc1cc(Nc2ncccc2/C=C/C(=O)c2cc(OC)c(OC)c(OC)c2)cc(OC)c1OC
a: false (0)

q: For O=C(CCl)Nc1ccc2c(c1)C(=O)c1ccccc1C2=O , which call appears in the assay record?
a: true (1)

q: Recorded test outcome, item COc1ccccc1CNCCCN1C(=O)c2ccc3c4c(ccc(c24)C1=O)C(=O)N(CCCOCCCCOCCCN)C3=O
a: true (1)

q: Please let me know the test result on file for CN(C)c1ccc(C2(Cl)c3ccccc3N(C)c3ccccc32)cc1 .
a: false (0)

q: Hello, I am checking results. What call was entered for CCOC(=O)Nc1ccc2nc(Sc3ccc(Cl)cc3)sc2c1 ?
a: false (0)

q: Hi team, can someone confirm the assay call for Cc1cc(-c2ccc(N=Nc3c(S(=O)(=O)O)cc4cc(S(=O)(=O)O)cc(O)c4c3O)c(C)c2)ccc1N=Nc1c(S(=O)(=O)O)cc2cc(S(=O)(=O)O)cc(O)c2c1O ?
a: false (0)

q: Look up the recorded call for CC(=O)Nc1ccc(/C=N/N2CCCCCC2)cc1 in this test.
a: false (0)

q: Hello, I am checking results. What call was entered for N/C(=N\OC(=O)c1ccccc1)C(C(=O)NOC(=O)c1ccccc1)C1CCCCC1 (stereo not given) ?
a: false (0)

q: Field: outcome | Entry: CCCCCCCCCCCC1=NC(C)(C)CN1CC(C)O (stereo not given)
a: true (1)

q: State the result this test recorded for COc1ccc(-c2nc(SCCC(C)C)nc(Nc3ccc(C(=O)O)cc3)c2C#N)cc1 .
a: false (0)

q: Answer briefly: the call reported for O=C(c1ccccc1)C1OC1C(=O)c1ccccc1 (stereo not given) in this assay.
a: false (0)

q: Please share the test call associated with COc1ccc(C(=O)OC2C(OC3C(O)COC(O[C@H]4C[C@H]5[C@@H]6CC=C7C[C@@H](O)CC[C@]7(C)[C@H]6CC[C@]5(C)[C@H]4[C@H](C)C(=O)CCC(C)C)C3OC(C)=O)OCC(O)C2O)cc1 (stereo not given in full) .
a: true (1)

q: // param item: COc1cc(-c2nc(-c3ccc(-c4nc5ccc(F)cc5[nH]4)cc3)no2)cc(OC)c1OC ; yields the recorded call
a: false (0)

q: Returns: the outcome recorded for COc1cccc(C2C(C#N)=C(N)Oc3cc4c(cc32)OCO4)c1 (stereo not given) in this assay.
a: false (0)

q: Give the logged outcome of this assay for the following molecule: O=C(CCCCCCN1CC(=O)N2[C@@H](c3ccc(Cl)c(Cl)c3)c3[nH]c4ccccc4c3C[C@H]2C1=O)NO
a: false (0)

q: Hi, sorry to bother you, what did the test record for Cn1c(=O)c2c(nc(N/N=C/c3ccccc3Cl)n2C)n(C)c1=O ?
a: false (0)

q: Lab log entry: O=C(/C=C/c1cn(-c2ccccc2)nc1-c1ccccc1)OCc1cn(-c2cccc([N+](=O)[O-])c2)nn1 — outcome as called in the assay?
a: false (0)

q: Assay outcome for CCSc1cnnc2ccccc12 : what was it?
a: false (0)

q: For Nc1ncnc2c1N=C(c1ccc3c(c1)OCO3)CC(c1ccc(Cl)cc1)N2 (stereo not given) , which call appears in the assay record?
a: false (0)

q: Could you please tell me the result logged for Cc1cc(C#Cc2ccc(C(C)(C)C)cc2)ccc1-n1c(/C=C/c2c(Cl)cccc2Cl)nc2ccccc2c1=O in this assay?
a: false (0)

q: What call does the record list for N=C(N)c1ccc(-c2ccc(-c3ccco3)o2)cc1F ?
a: true (1)

q: What was the test verdict on OCCN(CCO)c1ccc2ccccc2c1 ?
a: false (0)

q: For ClC1(Cl)C2CCCCCCC21 (stereo not given) , which call appears in the assay record?
a: false (0)

q: Entry CCCCCCCCCCCCCC1=NC(C)(C)CN1C(C)C : call = ?
a: true (1)

q: What classification did Nc1c(C(=O)Nc2ccccc2)sc2nc3c(cc12)C(=O)CCC3 end up with in this test?
a: false (0)

q: Could you kindly confirm the outcome this assay logged for CCOC(=O)C1C(=O)C=C(c2ccccc2)CC1c1sc(N(C)Cc2ccccc2)nc1Cl (stereo not given) ?
a: false (0)

q: Record lookup: outcome of this test for C#Cc1cccc(Nc2nc3cc([N+](=O)[O-])ccc3nc2Nc2ccc(O)cc2)c1 ?
a: true (1)

q: Check the results log: what was the call for CCC(=O)OCc1ccc(OC)cc1 ?
a: false (0)

q: Any idea what this test logged for O=c1nc(-c2ccccc2)c2cc(-c3ccc(N4CCOCC4)cc3)ccc2[nH]1 ?
a: false (0)

q: Test call, this molecule: COc1ccc(-n2c(COc3ccc(F)cc3)n[nH]c2=S)cc1
a: false (0)

q: Any idea what this test logged for C[C@@H]1N=C(c2ccc3ccccc3c2)Nc2nc3ccccn3c2C1=O ?
a: false (0)

q: Record lookup: outcome of this test for Cc1nn(-c2ccccc2)c2nc3c(nc12)C1=NCCN1C(c1ccc(Cl)cc1)N3 (stereo not given) ?
a: false (0)

q: Call for entry CN1CCC2(CC1)N=C(SCC(=O)Nc1cnc3ccccc3c1)C(c1ccc(Br)cc1)=N2 :
a: false (0)

q: Per the records of this test, what outcome belongs to O=C(Nc1cccc(C2=NCCN2)c1)c1ccc(N=Nc2ccc(C(=O)Nc3cccc(C4=NCCN4)c3)cc2)cc1 ?
a: false (0)

q: What was the test verdict on C=C1C(=O)O[C@H]2[C@H]1CC/C(COC(=O)NCc1cn(C)c3ccccc13)=C\CC[C@@]1(C)O[C@@H]21 ?
a: true (1)

q: Can you look up the reported call for CCOC(=O)c1cnc(SCC)nc1SC#N for me?
a: false (0)

q: How was S=C(S)Oc1cccc2cccnc12 classified in this test?
a: false (0)

q: Check the results log: what was the call for CCCCOc1nc2ccc(C)cc2cc1/C=C/C(=O)/C=C(O)/C=C/c1cc2cc(C)ccc2nc1OCCCC ?
a: false (0)

q: Returns: the outcome recorded for Cc1cccc2nc3ccccc3c(Nc3ccc(NS(C)(=O)=O)cc3)c12 in this assay.
a: false (0)

q: Could you please tell me the result logged for COc1cc(C2CC(c3ccc(C)cc3)=NN2C=O)ccc1Oc1nc2c(c(=O)n(C)c(=O)n2C)n1C (stereo not given) in this assay?
a: false (0)
